Tested on: human lung cancer A549 xenograft
Experiment: Growth inhibition of A549 xenograft in nude mice
Type: in vivo
Conditions: nude mice with A549 xenograft, 200 mg/kg intragastric, 5 times per week for four weeks, end
Recorded Weight (g) End values for a group of compounds are listed next.
Your answer is read as g, so omit the unit and give the number.

// known answers, use as guide
Tell us which Weight (g) End value is on record for O=C(O)CCC(NCc1ccc(-c2ccc3ncnc(Nc4ccc(OCc5cccc(F)c5)c(Cl)c4)c3c2)o1)C(=O)O (centres unmarked)
25.7

Give a short answer stating reported Weight (g) End for OCCNCc1ccc(-c2ccc3ncnc(Nc4ccc(OCc5cccc(F)c5)c(Cl)c4)c3c2)o1 [MS27·dimethanesulfonate] .
25.6

Supply reported Weight (g) End belonging to this compound: `CCCNCc1ccc(-c2ccc3ncnc(Nc4ccc(F)c(Cl)c4)c3c2)o1`
25.0

State, in one line, measured Weight (g) End of OCC(CO)NCc1ccc(-c2ccc3ncnc(Nc4ccc(OCc5cccc(F)c5)c(Cl)c4)c3c2)o1 [MS6·dimethanesulfonate]
25.2

Shifting focus to the compound that follows.
Hello, please tell me recorded Weight (g) End for this one: CS(=O)(=O)CCNCc1ccc(-c2ccc3ncnc(Nc4ccc(OCc5cccc(F)c5)c(Cl)c4)c3c2)o1 [Lapatinib, lapatinib, reference compound]
26.3

// data source = patent US9499530B2
